Consider the following molecules; for each one, report its log10 EC50.
assay.system: UniProt:Q07869
Sequence (Q07869 whole entry, looked up, the tested form may be a part): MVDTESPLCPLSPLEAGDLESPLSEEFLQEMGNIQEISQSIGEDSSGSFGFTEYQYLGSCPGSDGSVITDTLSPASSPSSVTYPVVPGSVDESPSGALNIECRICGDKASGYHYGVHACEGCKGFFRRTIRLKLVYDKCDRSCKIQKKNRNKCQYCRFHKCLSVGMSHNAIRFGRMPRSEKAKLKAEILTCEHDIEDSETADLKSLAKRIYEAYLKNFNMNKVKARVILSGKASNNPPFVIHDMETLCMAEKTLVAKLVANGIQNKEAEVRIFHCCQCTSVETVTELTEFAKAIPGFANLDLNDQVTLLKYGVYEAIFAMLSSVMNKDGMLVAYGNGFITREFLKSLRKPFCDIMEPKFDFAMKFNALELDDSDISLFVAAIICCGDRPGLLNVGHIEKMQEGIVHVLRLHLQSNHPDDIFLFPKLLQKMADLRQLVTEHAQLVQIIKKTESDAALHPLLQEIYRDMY
assay.explanation: Activation of transient transfected PPAR α in HEK293 cells (GAL4-hPPAR α luciferase assay)
Type: cell-based
condition.description: HEK293 transfected with GAL4-hPPAR α, 24 h incubation
Heads up, the numbers here are log10 of EC50 in nM units.

molecule Cc1cc(/C=C/C(=O)c2cc3ccccc3nc2N2CCOCC2)cc(C)c1OC(C)(C)C(=O)O , log10 EC50 observed: 2.77

molecule Cc1cc(/C=C/C(=O)c2cc3ccccc3nc2C(F)(F)F)cc(C)c1OC(C)(C)C(=O)O , log10 EC50 observed: 2.84

molecule COc1ccc2nc(Cl)c(C(=O)/C=C/c3cc(C)c(OC(C)(C)C(=O)O)c(C)c3)cc2c1 , log10 EC50 observed: 2.66

molecule Cc1cc(/C=C/C(=O)c2cc3ccccc3nc2N2CCCC2)cc(C)c1OC(C)(C)C(=O)O , log10 EC50 observed: 1.89

molecule COc1ccc2cc(C(=O)/C=C/c3cc(C)c(OC(C)(C)C(=O)O)c(C)c3)c(OC)nc2c1 , log10 EC50 observed: 0.12

molecule CSc1nc2ccccc2cc1C(=O)/C=C/c1cc(C)c(OC(C)(C)C(=O)O)c(C)c1 , log10 EC50 observed: 2.09

molecule Cc1cc(/C=C/C(=O)c2cc3ccccc3nc2Cl)cc(C)c1OC(C)(C)C(=O)O , log10 EC50 observed: 2.44

molecule Cc1cc(/C=C/C(=O)c2cc3ccccc3s2)cc(C)c1OC(C)(C)C(=O)O , log10 EC50 observed: 3.08

molecule COc1ccc2cc(C(=O)/C=C/c3cc(C)c(OC(C)(C)C(=O)O)c(C)c3)c(Cl)nc2c1 , log10 EC50 observed: 0.94

molecule Cc1cc(/C=C/C(=O)c2cnc3ccccc3c2)cc(C)c1OC(C)(C)C(=O)O , log10 EC50 observed: 3.29

molecule COc1nc2ccccc2cc1C(=O)/C=C/c1cc(C)c(OC(C)(C)C(=O)O)c(C)c1 , log10 EC50 observed: 1.45

molecule Cc1cc(/C=C/C(=O)c2cc3ccccc3nc2C)cc(C)c1OC(C)(C)C(=O)O , log10 EC50 observed: 2.88

molecule COCCOc1nc2ccccc2cc1C(=O)/C=C/c1cc(C)c(OC(C)(C)C(=O)O)c(C)c1 , log10 EC50 observed: 1.72

molecule COc1ccc2nc(OC)c(C(=O)/C=C/c3cc(C)c(OC(C)(C)C(=O)O)c(C)c3)cc2c1 , log10 EC50 observed: 0.73

====

assay.system: PPARδ (Homo sapiens (Human))
Sequence (Q03181 whole entry, looked up, the tested form may be a part): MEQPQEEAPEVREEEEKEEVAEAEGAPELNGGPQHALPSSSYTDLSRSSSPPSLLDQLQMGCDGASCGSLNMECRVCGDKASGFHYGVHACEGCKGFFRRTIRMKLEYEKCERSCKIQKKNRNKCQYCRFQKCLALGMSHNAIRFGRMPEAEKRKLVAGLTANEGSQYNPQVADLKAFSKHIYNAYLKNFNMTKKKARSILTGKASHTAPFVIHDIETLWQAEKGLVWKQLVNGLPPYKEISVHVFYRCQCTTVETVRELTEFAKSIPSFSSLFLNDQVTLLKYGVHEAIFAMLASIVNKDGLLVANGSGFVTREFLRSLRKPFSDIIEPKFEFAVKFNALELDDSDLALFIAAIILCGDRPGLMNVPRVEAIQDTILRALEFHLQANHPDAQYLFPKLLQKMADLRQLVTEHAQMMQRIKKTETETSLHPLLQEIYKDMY
assay.explanation: Activation of transient transfected PPAR δ in HEK293 cells (GAL4-hPPAR δ luciferase assay)
Assay type: cell-based
condition.description: HEK293 transfected with GAL4-hPPAR δ, 24 h incubation
Excerpt: Test Example 2: Experiment of the Compounds on Activation of Transient Transfected PPAR δ in HEK293 Cells Plasmid: pcDNA3.1(+)-GAL4-hPPAR δ, customized by Nanjing Kebai Biotechnology Co., Ltd. Liposome: PGL4.35, customized by Nanjing Kebai Biotechnology Co., Ltd. Cell: human embryonic kidney cells HEK293, purchased from ATCC. Transfection reagent: Lipofectamine Reagent 3000 purchased from Invitrogen. Assay kit: Bright Glo™ Luciferase Assay System purchased from Promega. […]
Consider the following compounds; for each one, report its pEC50.
Field pEC50 (float): negative decimal logarithm of the concentration in molar.

compound COc1ccc2nc(OC)c(C(=O)/C=C/c3cc(C)c(OC(C)(C)C(=O)O)c(C)c3)cc2c1 , pEC50 observed: 6.17

compound COc1ccc2cc(C(=O)/C=C/c3cc(C)c(OC(C)(C)C(=O)O)c(C)c3)c(Cl)nc2c1 , pEC50 observed: 6.09

compound Cc1cc(/C=C/C(=O)c2cc3ccccc3s2)cc(C)c1OC(C)(C)C(=O)O , pEC50 observed: 5.21

compound Cc1cc(/C=C/C(=O)c2cc3ccccc3nc2N2CCCC2)cc(C)c1OC(C)(C)C(=O)O , pEC50 observed: 5.60

compound COCCOc1nc2ccccc2cc1C(=O)/C=C/c1cc(C)c(OC(C)(C)C(=O)O)c(C)c1 , pEC50 observed: 6.43

compound COc1nc2ccccc2cc1C(=O)/C=C/c1cc(C)c(OC(C)(C)C(=O)O)c(C)c1 , pEC50 observed: 6.26

compound Cc1cc(/C=C/C(=O)c2cc3ccccc3nc2N2CCOCC2)cc(C)c1OC(C)(C)C(=O)O , pEC50 observed: 5.35

compound Cc1cc(/C=C/C(=O)c2cc3ccccc3nc2Cl)cc(C)c1OC(C)(C)C(=O)O , pEC50 observed: 5.46

compound COc1ccc2cc(C(=O)/C=C/c3cc(C)c(OC(C)(C)C(=O)O)c(C)c3)c(OC)nc2c1 , pEC50 observed: 6.10

====

assay.system: PPARγ (Homo sapiens (Human))
Sequence (P37231 whole entry): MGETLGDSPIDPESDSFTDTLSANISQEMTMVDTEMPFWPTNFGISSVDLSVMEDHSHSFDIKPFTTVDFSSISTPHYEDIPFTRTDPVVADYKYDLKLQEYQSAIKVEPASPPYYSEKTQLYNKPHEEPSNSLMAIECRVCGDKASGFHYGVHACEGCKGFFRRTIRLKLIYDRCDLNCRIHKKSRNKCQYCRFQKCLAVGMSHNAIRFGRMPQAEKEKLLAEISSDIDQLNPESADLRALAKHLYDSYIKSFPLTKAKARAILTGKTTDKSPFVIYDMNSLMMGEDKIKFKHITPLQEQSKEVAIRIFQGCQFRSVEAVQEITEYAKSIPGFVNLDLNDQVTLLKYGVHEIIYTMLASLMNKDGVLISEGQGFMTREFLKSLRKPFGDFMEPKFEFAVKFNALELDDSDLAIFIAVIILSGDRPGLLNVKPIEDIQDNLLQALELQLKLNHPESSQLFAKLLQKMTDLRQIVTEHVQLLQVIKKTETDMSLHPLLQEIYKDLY
assay.explanation: Activation of PPARγ in genetically engineered CHO-K1 cells (PathHunter)
condition.description: PathHunter CHO-K1 PPARγ cell line, agonist format, 6 hours
Consider the following molecules; for each one, report its EC50.
Use nM as the unit, but write only the number.

molecule COc1nc2ccccc2cc1C(=O)CCc1cc(C)c(OC(C)(C)C(=O)O)c(C)c1 , EC50 observed: 1950

molecule COc1nc2ccccc2cc1C(=O)/C=C/c1cc(C)c(OC(C)(C)C(=O)O)c(C)c1 , EC50 observed: 174

====

assay.explanation: Cytotoxicity test on HepG2 cells (CellTiter Glo)
Format: cell-based
condition.description: human, incubated for 3 days
Consider the following compounds; for each one, report its CC50 at 3 days.

compound Cc1cc(/C=C/C(=O)c2cc3ccccc3nc2C(F)(F)F)cc(C)c1OC(C)(C)C(=O)O [Example 8] , CC50 at 3 days observed: > 10 µM

compound Cc1cc(/C=C/C(=O)c2cc3ccccc3s2)cc(C)c1OC(C)(C)C(=O)O [Example 2] , CC50 at 3 days observed: ~7.27 µM

compound COc1nc2ccccc2cc1C(=O)/C=C/c1cc(C)c(OC(C)(C)C(=O)O)c(C)c1 [Example 5] , CC50 at 3 days observed: 13 µM

compound COCCOc1nc2ccccc2cc1C(=O)/C=C/c1cc(C)c(OC(C)(C)C(=O)O)c(C)c1 [Example 6] , CC50 at 3 days observed: > 10 µM

compound Cc1cc(/C=C/C(=O)c2cc3ccccc3nc2C)cc(C)c1OC(C)(C)C(=O)O [Example 7] , CC50 at 3 days observed: > 10 µM

compound Cc1cc(/C=C/C(=O)c2cc3ccccc3nc2Cl)cc(C)c1OC(C)(C)C(=O)O [Example 4] , CC50 at 3 days observed: 11.3 µM

====

Consider the following compounds; for each one, report its CC50 at 3 days.
assay.explanation: Cytotoxicity test on HEK293 cells (CellTiter Glo)
Format: cell-based
condition.description: human, incubated for 3 days

compound Cc1cc(/C=C/C(=O)c2cc3ccccc3nc2C)cc(C)c1OC(C)(C)C(=O)O , CC50 at 3 days observed: > 10 µM

compound Cc1cc(/C=C/C(=O)c2cc3ccccc3nc2C(F)(F)F)cc(C)c1OC(C)(C)C(=O)O , CC50 at 3 days observed: > 10 µM

compound COCCOc1nc2ccccc2cc1C(=O)/C=C/c1cc(C)c(OC(C)(C)C(=O)O)c(C)c1 , CC50 at 3 days observed: > 10 µM

compound COc1nc2ccccc2cc1C(=O)/C=C/c1cc(C)c(OC(C)(C)C(=O)O)c(C)c1 , CC50 at 3 days observed: 7.13 µM

compound Cc1cc(/C=C/C(=O)c2cc3ccccc3s2)cc(C)c1OC(C)(C)C(=O)O , CC50 at 3 days observed: ~8.14 µM

compound Cc1cc(/C=C/C(=O)c2cc3ccccc3nc2Cl)cc(C)c1OC(C)(C)C(=O)O , CC50 at 3 days observed: 13.6 µM
